Data provenance: patent US7803801B2

The entries below come with measured IC50 values attached.
Test system: cultured human mast cells
Assay overview: Degranulation inhibition test using cultured human mast cells (IgE cross-linking, β-Hexosaminidase release)
Format: cell-based
Protocol conditions: Mast cell; cultured human mast cells, anti-hIgE stimulation, β-Hexosaminidase index, average; read-out: human degranulation ave. IC50
Where a name gives a salt, the structure may show the parent alone.

Compound: COc1ccnc(Nc2cccc(-c3cnc([C@H]4CC[C@H](C(=O)O)CC4)s3)n2)c1 [Compound A-188]
IC50: 100 to 1000 nM

Compound: CC(=O)N[C@@H](C)c1ncc(-c2cccc(Nc3cc(CC(=O)O)ccn3)n2)s1 [Compound A-331]
IC50: > 1000 nM

Compound: Cc1ccnc(Nc2cccc(-c3cnc(CCc4ccc(C(=O)NCCO)cc4)s3)n2)c1 [Compound A-162]
IC50: 100 to 1000 nM

Compound: Cc1ccnc(Nc2cccc(-c3cnc([C@@H](N)Cc4ccc(N)cc4)s3)n2)c1 [Compound A-180]
IC50: > 1000 nM

Compound: Cc1ccnc(Nc2cccc(-c3cnc([C@H]4CC[C@H](C(=O)NCCc5ccccn5)CC4)s3)n2)c1 [Compound A-279]
IC50: 100 to 1000 nM

Compound: Cc1ccnc(Nc2cccc(-c3cnc([C@@H]4CCC(=O)O4)s3)n2)c1 [Compound A-33]
IC50: 100 to 1000 nM

Compound: Cc1ccnc(Nc2cccc(-c3cnc(C4CCN(C(=O)CC(=O)O)CC4)s3)n2)c1 [Compound A-192, hydrochloride]
IC50: > 1000 nM

Compound: Cc1ccnc(Nc2cccc(-c3cnc([C@H]4CC[C@H](CN5C[C@@H](O)[C@@H](O)C5)CC4)s3)n2)c1 [Compound A-314]
IC50: > 1000 nM

---

Target or system: GST-Syk Full Protein (human) (Homo sapiens, UniProt P43405)
Assay overview: Syk kinase inhibition test (HTRF method)
Assay type: biochemical
Protocol conditions: Tables 1-x, compounds A; read-out: sykHTRF ave IC50
pIC50: −log10 of the molar value. Structures can show the parent of a compound that is named as a salt.
Attribute: pIC50

Compound: Cc1ccnc(Nc2cccc(-c3cnc(N(C)Cc4ccc(C(=O)O)cc4Cl)s3)n2)c1 [Compound A-604, dihydrochloride]
pIC50: > 7.00
--
Compound: Cc1ccnc(Nc2cccc(-c3cnc(N4CCN(CC(=O)NCCO)C(=O)C4)s3)n2)c1 [Compound A-468]
pIC50: > 7.00
--
Compound: Cc1ccnc(Nc2cccc(-c3cnc(N(C)Cc4ccc(CC(=O)O)cc4)s3)n2)c1 [Compound A-587, dihydrochloride]
pIC50: > 7.00
--
Compound: Cc1ccnc(Nc2cccc(-c3cnc(N(C)CC(N)=O)s3)n2)c1 [Compound A-556]
pIC50: > 7.00
--
Compound: Cc1ccnc(Nc2cccc(-c3cnc(N(CC(N)=O)[C@H]4CC[C@H](C(=O)O)CC4)s3)n2)c1 [Compound A-600]
pIC50: 6.00 to 7.00
--
Compound: Cc1ccnc(Nc2cccc(-c3cnc(N(C)[C@H]4CC[C@@H](CC(=O)O)CC4)s3)n2)c1 [Compound A-611]
pIC50: > 7.00
--
Compound: O=C(O)CC1CCN(c2ncc(-c3cccc(Nc4cc(CCO)ccn4)n3)s2)CC1 [Compound A-681, dihydrochloride]
pIC50: > 7.00
--
Compound: CN(Cc1ccc(CC(=O)O)cc1)c1ncc(-c2cccc(Nc3cc(C(F)(F)F)ccn3)n2)s1 [Compound A-651]
pIC50: > 7.00
--
Compound: Cc1ccnc(Nc2cccc(-c3cnc(N4CCC(C)(C(=O)NCCO)CC4)s3)n2)c1 [Compound A-503]
pIC50: > 7.00
--
Compound: COc1ccnc(Nc2cccc(-c3cnc(N4CCC[C@H]4C(N)=O)s3)n2)c1 [Compound A-541]
pIC50: > 7.00
--
Compound: Cc1ccnc(Nc2cccc(-c3cnc(CN4CCC(C(N)=O)CC4)s3)n2)c1 [Compound A-685]
pIC50: > 7.00
--
Compound: Cc1ccnc(Nc2cccc(-c3cnc(N4CCN(C)CC4)s3)n2)c1 [Compound A-432]
pIC50: > 7.00
--
Compound: Cc1ccnc(Nc2cccc(-c3cnc(C4CCN(S(=O)(=O)C(C)C)CC4)s3)n2)c1 [Compound A-398]
pIC50: 6.00 to 7.00
--
Compound: CNC(=O)C1CCN(c2ncc(-c3cccc(Nc4cc(OC)ccn4)n3)s2)CC1 [Compound A-436]
pIC50: > 7.00
--
Compound: Cc1ccnc(Nc2cccc(-c3cnc(N4CCCC(C(=O)O)C4)s3)n2)c1 (stereo not drawn) [Compound A-474]
pIC50: > 7.00
--
Compound: Cc1ccnc(Nc2cccc(-c3cnc(N(Cc4ccccc4)[C@H]4CC[C@@H](CC(=O)O)CC4)s3)n2)c1 [Compound A-625]
pIC50: 6.00 to 7.00
--
Compound: CC(C)(C(=O)O)C1CCN(c2ncc(-c3cccc(Nc4ccccn4)n3)s2)CC1 [Compound A-714]
pIC50: > 7.00
--
Compound: CC(=O)Oc1ccc(C(=O)N2CCC(c3ncc(-c4cccc(Nc5cc(C)ccn5)n4)s3)CC2)cc1 [Compound A-377]
pIC50: 6.00 to 7.00
--
Compound: Cc1ccnc(Nc2cccc(-c3cnc(N(C)CC(=O)N[C@H](C(=O)O)C(C)C)s3)n2)c1 [Compound A-568, dihydrochloride]
pIC50: > 7.00
--
Compound: Cc1ccnc(Nc2cccc(-c3cnc([C@@H](N)Cc4ccc(O)cc4)s3)n2)c1 [Compound A-389]
pIC50: 6.00 to 7.00
--
Compound: Cc1ccnc(Nc2cccc(-c3cnc(N(Cc4ccccc4)C[C@H]4CC[C@H](C(=O)O)CC4)s3)n2)c1 [Compound A-622]
pIC50: > 7.00
--
Compound: Cc1ccnc(Nc2cccc(-c3cnc(N4CCCC(CCCCC(=O)O)C4)s3)n2)c1 (stereo not drawn) [Compound A-719, dihydrochloride]
pIC50: > 7.00
--
Compound: Cc1ccnc(Nc2cccc(-c3cnc(NCCN4CCOCC4)s3)n2)c1 [Compound A-695]
pIC50: > 7.00
--
Compound: Cc1ccnc(Nc2cccc(-c3cnc(N(C)C4CCC(C(=O)NCCO)CC4)s3)n2)c1 (stereo not drawn) [Compound A-493]
pIC50: > 7.00
--
Compound: CC(=O)N1CCC(N(CCNS(C)(=O)=O)c2ncc(-c3cccc(Nc4cc(C)ccn4)n3)s2)CC1 [Compound A-524]
pIC50: > 7.00
--
Compound: Cc1ccnc(Nc2cccc(-c3cnc(N4CC[C@@H](OCC(=O)O)C4)s3)n2)c1 [Compound A-575, dihydrochloride]
pIC50: > 7.00
--
Compound: OCCN(CCO)c1ncc(-c2cccc(Nc3cc(Cl)ccn3)n2)s1 [Compound A-545]
pIC50: > 7.00
